System: mice
method: Neuropharmacological Assay (SmartCube)
Assay type: in vivo
condition-details: i.p. 15 min before behavioral test; 3 doses, most efficacious dose(s) presented
Excerpt: Neurosci. […] As reported in Roberds, because psychiatric diseases generally result from disorders of cell-cell communication or circuitry, intact systems are useful in detecting improvement in disease-relevant endpoints. These endpoints are typically behavioral in nature, often requiring human observation and interpretation. […] where LOQ is the limit of quantification. […]
test-readout: DP: anti-depressant (probability of class match)

Consider the worked cases shown below.
CN(C)CC1OCCCn2nc3ccccc3c21.Cl (stereo not drawn) [Compound 52] ... ++ (5%≦ ++ <25%)
c1ccc2c3n(nc2c1)CCOC3CN1CCCC1 (stereo not drawn) [Compound 19] ... +++ (25%≦ +++ <50%)
CC1(CN)OCCn2nc3ccccc3c21.Cl (stereo not drawn) [Compound 39] ... ++ (5%≦ ++ <25%)
CN(C)CC1OCCn2nc3ccsc3c21.Cl (stereo not drawn) [Compound 59] ... ++ (5%≦ ++ <25%)
CN(C)CC1OCCn2nc3ccc(Cl)cc3c21.Cl (stereo not drawn) [Compound 6] ... +++ (25%≦ +++ <50%)
Cl.NCC1OCCn2nc3ccsc3c21 (stereo not drawn) [Compound 60] ... ++ (5%≦ ++ <25%)
CN[C@@H](C)[C@H]1OCCn2nc3ccccc3c21 (relative stereo) [Compound 34] ... + (LOQ≦ + <5%)
CN[C@H](C)[C@H]1OCCn2nc3ccccc3c21.Cl (relative stereo) [Compound 31] ... ++ (5%≦ ++ <25%)

Q: Consider the compound c1ccc2c3n(nc2c1)CCOC3CNC1CCC1 (stereo not drawn) [Compound 16] and give its measured DP: anti-depressant (probability of class match).
Ans: + (LOQ≦ + <5%)

Q: Consider the compound CN(C)CC1OCCn2nc3ccc(F)cc3c21.Cl (stereo not drawn) [Compound 8] and give its measured DP: anti-depressant (probability of class match).
Ans: +++ (25%≦ +++ <50%)

Q: Consider the compound CC(C)N(C)CC1OCCCn2nc3ccccc3c21.Cl (stereo not drawn) [Compound 54] and give its measured DP: anti-depressant (probability of class match).
Ans: + (LOQ≦ + <5%)

* * *

Tested on: mice
method: Neuropharmacological Assay (SmartCube)
Assay type: in vivo
condition-details: i.p. 15 min before behavioral test; 3 doses, most efficacious dose(s) presented
Where a name gives a salt, the structure may show the parent alone.
test-readout: SD: sedative hypnotic (probability of class match)

c1ccc2c3n(nc2c1)CCOC3[C@@H]1CCCN1 (stereo partly shown) [Compound 13, hydrochloride] ... + (LOQ≦ + <5%)
CNC[C@H]1OCCn2nc3ccccc3c21.Cl [Compound 2] ... + (LOQ≦ + <5%)
CN(C)CC1OCCCn2nc3ccccc3c21.Cl (stereo not shown) [Compound 52] ... + (LOQ≦ + <5%)
